B1: NF2 (merlin) isoform 7, human, full length (507 aa, lacks exons 2-3 = isoform-1 residues 39-121; exon-16 C-terminus), P35240-4 (parent)
chain: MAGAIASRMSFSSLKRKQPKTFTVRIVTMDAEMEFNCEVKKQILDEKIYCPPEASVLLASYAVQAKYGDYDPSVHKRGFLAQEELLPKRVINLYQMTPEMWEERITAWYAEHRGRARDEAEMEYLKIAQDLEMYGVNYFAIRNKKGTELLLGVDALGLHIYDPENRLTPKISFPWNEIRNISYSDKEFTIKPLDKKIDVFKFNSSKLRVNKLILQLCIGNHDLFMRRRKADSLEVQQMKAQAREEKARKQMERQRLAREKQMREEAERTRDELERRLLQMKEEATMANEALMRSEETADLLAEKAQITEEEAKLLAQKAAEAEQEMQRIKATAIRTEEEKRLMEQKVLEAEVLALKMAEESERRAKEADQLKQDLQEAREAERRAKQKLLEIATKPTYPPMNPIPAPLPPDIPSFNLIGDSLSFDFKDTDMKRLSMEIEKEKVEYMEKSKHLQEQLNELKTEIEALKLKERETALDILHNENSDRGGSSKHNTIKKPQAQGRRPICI

variants of: B1; assay: reverse yeast two-hybrid deep mutational scan (rY2H-seq): NF2 isoform 7 mutant library as bait mated with wild-type prey strains; selection on medium lacking adenine for non-interacting pairs; NextSeq paired-end sequencing; enrichment vs …; details: with PIK3R3 (phosphatidylinositol 3-kinase regulatory subunit gamma), Q92569; yeast diploids after mating (RBait_S3 x RPrey_S3), 30 °C, selection for reporter genes on NB agar; human tyrosine kinase ABL2 co-expressed as the active kinase …; HIGHER = WEAKER BINDING (the opposite of display enrichments): higher = stronger loss of interaction: reverse Y2H selects yeast in which bait and prey do NOT interact (growth without adenine), so a …; hits-only table; scale: rY2H score; numbering: uniprot, sequence starts at 1
result-type: enrichment

N137R | 2.63
P52A | 1.76
T394A | 2.14

(I) Y161W
(II) A62K
(III) R253Q
Reorder the items by enrichment, least to greatest. Quick reminder: the answer is the labels in the order asked.
III, II, I
